# study-target: Human MrgprX2 (Homo sapiens)
# Construct: expressed in transfected cells; host or cells: recombinant cells
# assay-name: FLIPR intracellular calcium mobilization antagonist assay in recombinant hMrgpMRGPRX2 expressing cells
# Format: cell-based
# assay-context: antagonist activity, read-out: Human MrgprX2 Antagonist pIC50 (converted)
Please note: IC50 exactly at 700 nM is NOT MET. Only values below 700 nM get MET.

# example entries with known answers
>>> print(df.to_string())
                                   molecule                  study_target  class_assignment
0         CC(C)C(=O)Nc1nnc(Cc2cccc(F)c2F)s1  Human MrgprX2 (Homo sapiens)           NOT MET
1  CCN(C[C@H](C)O)C(=O)Nc1nnc(Cc2ccc(F)c(F)c2)s1  Human MrgprX2 (Homo sapiens)           NOT MET
2  CCN(CC1(O)CC1)C(=O)Nc1nnc(Cc2cc(F)cc(F)c2)s1  Human MrgprX2 (Homo sapiens)               MET
3  CCN(C[C@H](C)O)C(=O)Nc1nnc(Cc2cccc(F)c2F)s1  Human MrgprX2 (Homo sapiens)           NOT MET

Q) Quick check: IC50 of CN(CC(C)(O)C(F)(F)F)C(=O)Nc1nnc(Cc2cccc(F)c2)s1 (stereo not drawn) [Example E40] under 700 nM?
A) MET

Q) Take the molecule CCN(C[C@H](C)O)C(=O)Nc1nnc(Cc2cc(C)cc(F)c2)s1 and say whether its IC50 is less than 700 nM.
A) NOT MET

Q) Given the entry CCN(CC(C)(C)O)C(=O)Nc1nnc(Cc2cc(F)cc(F)c2)s1 , would its reported IC50 be below 700 nM?
A) MET

----------
Recorded log10(IC50) by entry
# study-target: Human MrgprX2 (Homo sapiens)
# Construct: expressed in transfected cells; host or cells: recombinant cells
# assay-name: FLIPR intracellular calcium mobilization antagonist assay in recombinant hMrgpMRGPRX2 expressing cells
# Assay type: cell-based
# assay-context: antagonist activity, read-out: Human MrgprX2 Antagonist pIC50 (converted)
Scale type: logarithmic (base 10). Underlying IC50 unit: nM.

Example cases with answers are listed next.
>>> df
                                   compound  reported_endpoint  result
0  C[C@H](O)CN(C)C(=O)Nc1nnc(Cc2cc(F)cc(F)c2)s1        log10(IC50)    3.40
1  CCN(CC(C)(C)O)C(=O)Nc1nnc(Cc2cc(C)cc(F)c2)s1        log10(IC50)    2.57
2  CCN(C[C@H](C)O)C(=O)Nc1nnc(Cc2cc(F)cc(F)c2)s1        log10(IC50)    2.40

Value of log10(IC50) reported for the compound CN(C[C@@H](O)C(F)(F)F)C(=O)Nc1nnc(Cc2cc(Cl)cc(Cl)c2)s1 is 2.46

In plain terms, CCN(C[C@@H](O)C(F)(F)F)C(=O)Nc1nnc(Cc2cc(F)cc(Cl)c2)s1 has a documented log10(IC50) of 1.15

Recorded log10(IC50) (compound CC(C)C(=O)Nc1nnc(Cc2ccc(F)cc2)s1 ): 3.90

----------
# study-target: Human MrgprX2 (Homo sapiens, UniProt Q96LB1)
# Construct: expressed in transfected cells; host or cells: recombinant cells
# Sequence (Q96LB1 whole entry): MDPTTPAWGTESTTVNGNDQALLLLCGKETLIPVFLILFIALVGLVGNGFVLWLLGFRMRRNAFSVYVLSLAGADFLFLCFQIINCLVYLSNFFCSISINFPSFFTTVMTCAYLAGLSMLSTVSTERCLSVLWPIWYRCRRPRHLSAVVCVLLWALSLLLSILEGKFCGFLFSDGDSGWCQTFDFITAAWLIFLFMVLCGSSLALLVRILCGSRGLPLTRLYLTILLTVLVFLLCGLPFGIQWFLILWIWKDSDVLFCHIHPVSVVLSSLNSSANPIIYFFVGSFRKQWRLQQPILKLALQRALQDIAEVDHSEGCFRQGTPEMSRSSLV
# assay-name: FLIPR intracellular calcium mobilization antagonist assay in recombinant hMrgpMRGPRX2 expressing cells
# Type: cell-based
# assay-context: antagonist activity, read-out: Human MrgprX2 Antagonist pIC50 (converted)
reported-endpoint: log10 of IC50 (log10 of the value in nM)
A value of 2 here means IC50 of 100 in nM, since values are log10.

These solved cases illustrate the format of a correct answer.
                                   compound  result
0  CCN(C[C@H](C)O)C(=O)Nc1nnc(Cc2cccc(F)c2)s1    3.50
1  CN(C[C@@](C)(O)C(F)(F)F)C(=O)Nc1nnc(Cc2cc(F)cc(Cl)c2)s1    1.21
2  CCN(C[C@H](C)O)C(=O)Nc1nnc(Cc2cccc(C)c2)s1    3.90
3  CN(CC1CCCO1)C(=O)Nc1nnc(Cc2cc(F)cc(F)c2)s1 (centres unmarked)    3.10

Could you now look at the following compound, please?
Entry CCN(C[C@H](C)O)C(=O)Nc1nnc(Cc2cc(Cl)cc(Cl)c2)s1 , Human MrgprX2 (Homo sapiens, UniProt Q96LB1) data, log10 of IC50 value: 2.20

Value source: patent US20230002336A1
